Taken from ChEMBL document CHEMBL3885861.

I'd be grateful if you could share measured WBC for these entries.
# Species: Rattus norvegicus
# EXPERIMENT_SUMMARY: Open TG-GATES - Regimen: Single
# Assay type: toxicity, organism-based, Sprague-Dawley
# Design: regimen Single, gender Male, age 6 weeks
# ASSAY_CONDITIONS: in vivo, po, 30 mg/kg, 3 h, tissue Blood, route gavage, dose level Middle
Report the figure along with its unit, number first.

Please fill in: WBC reported for `CN(C)CCN(Cc1cccs1)c1ccccn1` = 81.5 x10_2/uL

Please fill in: WBC reported for CC1=C(/C=C/C(C)=C/C=C/C(C)=C/CO)C(C)(C)CCC1 [RETINOL] = 84.2 x10_2/uL

Please fill in: WBC reported for CN(C)CCCN1c2ccccc2CCc2ccccc21 [IMIPRAMINE] = 75.9 x10_2/uL

Please fill in: WBC reported for CN(C)CCCN1c2ccccc2CCc2ccc(Cl)cc21 [CLOMIPRAMINE] = 95.4 x10_2/uL

----------
# Species: Rattus norvegicus
# EXPERIMENT_SUMMARY: Open TG-GATES - Regimen: Daily Repeat
# Assay type: toxicity, organism-based, Sprague-Dawley
# Design: regimen Daily Repeat, gender Male, age 6 weeks
# ASSAY_CONDITIONS: in vivo, po, 300 mg/kg, […], tissue Blood, route gavage, dose level Middle, time 14 day
MEASURED_ENDPOINT: Eos (%)
Hi! Could you send only the number? It should be in %, unit omitted.

Please fill in: Eos reported for COc1ccc2[nH]c([S+]([O-])Cc3ncc(C)c(OC)c3C)nc2c1 (stereo not given) = 0.8

Please fill in: Eos reported for CCOC(=O)CCC(=O)O[C@H]1[C@H](O[C@@H]2[C@@H](C)[C@H](O[C@H]3C[C@@](C)(OC)[C@@H](O)[C@H](C)O3)[C@@H](C)C(=O)O[C@H](CC)[C@@](C)(O)[C@H](O)[C@@H](C)C(=O)[C@H](C)C[C@@]2(C)O)O[C@H](C)C[C@@H]1N(C)C [ERYTHROMYCIN ETHYLSUCCINATE] = 1

Please fill in: Eos reported for CCOc1ccc(NC(=O)CC(C)O)cc1 (stereo not given) = 1

Please fill in: Eos reported for `NC(N)=Nc1nc(CSCCC(N)=NS(N)(=O)=O)cs1` = 0.8

Please fill in: Eos reported for `COC1=CC(=O)C[C@@H](C)[C@]12Oc1c(Cl)c(OC)cc(OC)c1C2=O` = 1

----------
# Organism: Rattus norvegicus
# EXPERIMENT_SUMMARY: Open TG-GATES - Regimen: Single
# Type: toxicity, organism-based, Sprague-Dawley
# Set-up: regimen Single, gender Male, age 6 weeks
# ASSAY_CONDITIONS: in vivo, po, 1000 mg/kg, 3 h, tissue Plasma, route gavage, dose level High
MEASURED_ENDPOINT: Cl (meq/L)
Hi! Could you send only the number? It should be in meq/L, unit omitted.

Please fill in: Cl reported for COc1ccc2[nH]c([S+]([O-])Cc3ncc(C)c(OC)c3C)nc2c1 (centres undefined) [OMEPRAZOLE] = 100.6

Please fill in: Cl reported for COC1=CC(=O)C[C@@H](C)[C@]12Oc1c(Cl)c(OC)cc(OC)c1C2=O [GRISEOFULVIN] = 103.6

Please fill in: Cl reported for NC(N)=Nc1nc(CSCCC(N)=NS(N)(=O)=O)cs1 [FAMOTIDINE] = 103.4

Please fill in: Cl reported for CCOC(=O)CCC(=O)O[C@H]1[C@H](O[C@@H]2[C@@H](C)[C@H](O[C@H]3C[C@@](C)(OC)[C@@H](O)[C@H](C)O3)[C@@H](C)C(=O)O[C@H](CC)[C@@](C)(O)[C@H](O)[C@@H](C)C(=O)[C@H](C)C[C@@]2(C)O)O[C@H](C)C[C@@H]1N(C)C [ERYTHROMYCIN ETHYLSUCCINATE] = 102.4

----------
# Species: Rattus norvegicus
# EXPERIMENT_SUMMARY: Open TG-GATES - Regimen: Daily Repeat
# Type: toxicity, organism-based, Sprague-Dawley
# Parameters: regimen Daily Repeat, gender Male, age 6 weeks
# ASSAY_CONDITIONS: in vivo, po, 0 mg/kg, […], tissue Plasma, route gavage, dose level Control, time 7 day
MEASURED_ENDPOINT: TP (g/dL)
Hi! Could you send only the number? It should be in g/dL, unit omitted.

Please fill in: TP reported for COc1ccc2[nH]c([S+]([O-])Cc3ncc(C)c(OC)c3C)nc2c1 (stereo unspecified) = 5.7

Please fill in: TP reported for CCOc1ccc(NC(=O)CC(C)O)cc1 (stereo unspecified) = 5.8

Please fill in: TP reported for `O=C(CCCN1CCC(O)(c2ccc(Cl)cc2)CC1)c1ccc(F)cc1` = 5.9

Please fill in: TP reported for CCCNC(=O)NS(=O)(=O)c1ccc(Cl)cc1 [CHLORPROPAMIDE] = 5.8

Please fill in: TP reported for `NNC(=O)c1ccncc1` = 5.9

Please fill in: TP reported for `CN(C)CCCN1c2ccccc2CCc2ccccc21` = 5.9

----------
# Species: Rattus norvegicus
# EXPERIMENT_SUMMARY: Open TG-GATES - Regimen: Single
# Format: toxicity, organism-based, Sprague-Dawley
# Design: regimen Single, gender Male, age 6 weeks
# ASSAY_CONDITIONS: in vivo, po, 30 mg/kg, 9 h, tissue Plasma, route gavage, dose level Middle
MEASURED_ENDPOINT: IP (mg/dL)
Hi! Could you send only the number? It should be in mg/dL, unit omitted.

Please fill in: IP reported for `CN(C)CCN(Cc1cccs1)c1ccccn1` = 9.9

Please fill in: IP reported for `CN(C)CCCN1c2ccccc2CCc2ccc(Cl)cc21` = 10.5

Please fill in: IP reported for `CC1=C(/C=C/C(C)=C/C=C/C(C)=C/CO)C(C)(C)CCC1` = 11.1

Please fill in: IP reported for `CN(C)CCCN1c2ccccc2CCc2ccccc21` = 9.6

----------
# Species: Rattus norvegicus
# EXPERIMENT_SUMMARY: Open TG-GATES - Regimen: Single
# Type: toxicity, organism-based, Sprague-Dawley
# Design: regimen Single, gender Male, age 6 weeks
# ASSAY_CONDITIONS: in vivo, po, 0 mg/kg, 9 h, tissue Kidney, route gavage, dose level Control
MEASURED_ENDPOINT: KIDNEY_TOTAL (g)
Hi! Could you send only the number? It should be in g, unit omitted.

Please fill in: KIDNEY_TOTAL reported for COc1ccc2[nH]c([S+]([O-])Cc3ncc(C)c(OC)c3C)nc2c1 (centres undefined) = 1.9

Please fill in: KIDNEY_TOTAL reported for `COc1cc2c(c(OC)c1OC)-c1ccc(OC)c(=O)cc1[C@@H](NC(C)=O)CC2` = 2.1

Please fill in: KIDNEY_TOTAL reported for `O=C(CCCN1CCC(O)(c2ccc(Cl)cc2)CC1)c1ccc(F)cc1` = 1.8

Please fill in: KIDNEY_TOTAL reported for `NNC(=O)c1ccncc1` = 1.9

Please fill in: KIDNEY_TOTAL reported for `CC/C(=C(\c1ccccc1)c1ccc(OCCN(C)C)cc1)c1ccccc1` = 1.6

Please fill in: KIDNEY_TOTAL reported for CCOC(=O)CCC(=O)O[C@H]1[C@H](O[C@@H]2[C@@H](C)[C@H](O[C@H]3C[C@@](C)(OC)[C@@H](O)[C@H](C)O3)[C@@H](C)C(=O)O[C@H](CC)[C@@](C)(O)[C@H](O)[C@@H](C)C(=O)[C@H](C)C[C@@]2(C)O)O[C@H](C)C[C@@H]1N(C)C [ERYTHROMYCIN ETHYLSUCCINATE] = 1.9

Please fill in: KIDNEY_TOTAL reported for CC(C)OC(=O)C(C)(C)Oc1ccc(C(=O)c2ccc(Cl)cc2)cc1 [FENOFIBRATE] = 1.5

Please fill in: KIDNEY_TOTAL reported for `CC1=C(/C=C/C(C)=C/C=C/C(C)=C/CO)C(C)(C)CCC1` = 1.9

Please fill in: KIDNEY_TOTAL reported for `C[C@@H]1C[C@H]2[C@@H]3CCC4=CC(=O)C=C[C@]4(C)[C@@]3(F)[C@@H](O)C[C@]2(C)[C@@]1(O)C(=O)CO` = 0.7

----------
# Species on record: Rattus norvegicus
# EXPERIMENT_SUMMARY: Open TG-GATES - Regimen: Single
# Format: toxicity, organism-based, Sprague-Dawley
# Set-up: regimen Single, gender Male, age 6 weeks
# ASSAY_CONDITIONS: in vivo, po, 10 mg/kg, 9 h, tissue Blood, route gavage, dose level Low
I'd be grateful if you could share measured RBC for these entries.
Hi! Could you send only the number? It should be in x10_4/ul, unit omitted.

Please fill in: RBC reported for `CN(C)CCCN1c2ccccc2CCc2ccccc21` = 658

Please fill in: RBC reported for `CC1=C(/C=C/C(C)=C/C=C/C(C)=C/CO)C(C)(C)CCC1` = 610.2

Please fill in: RBC reported for CC(C)OC(=O)C(C)(C)Oc1ccc(C(=O)c2ccc(Cl)cc2)cc1 [FENOFIBRATE] = 608.4

Please fill in: RBC reported for `CN(C)CCN(Cc1cccs1)c1ccccn1` = 621.8
